Attribute: CC50
assay: in vitro; details: human

Some compounds with recorded CC50:
{"SMILES_STRING": "Oc1ccccc1/C=N/c1ccc(-c2nc3ccccc3s2)cc1", "PARAMETER": "CC50", "RESULT": "> 100 µM"}
{"SMILES_STRING": "O=[N+]([O-])c1cc(/C=N/c2ccc(-c3nc4ccccc4s3)cc2)cs1", "PARAMETER": "CC50", "RESULT": "> 100 µM"}
{"SMILES_STRING": "C(=N\\c1ccc(-c2nc3ccccc3s2)cc1)/c1cc[nH]c1", "PARAMETER": "CC50", "RESULT": "> 100 µM"}
{"SMILES_STRING": "C(=N\\c1ccc(-c2nc3ccccc3s2)cc1)/c1cncs1", "PARAMETER": "CC50", "RESULT": "> 100 µM"}
{"SMILES_STRING": "C(=N\\c1ccc(-c2nc3ccccc3s2)cc1)/c1ccsc1", "PARAMETER": "CC50", "RESULT": "> 100 µM"}
{"SMILES_STRING": "C(=N\\c1ccc(-c2nc3ccccc3s2)cc1)/c1cccnc1", "PARAMETER": "CC50", "RESULT": "> 100 µM"}
{"SMILES_STRING": "C(=N\\c1ccc(-c2nc3ccccc3s2)cc1)/c1cscn1", "PARAMETER": "CC50", "RESULT": "> 100 µM"}
{"SMILES_STRING": "C(=N\\c1ccc(-c2nc3ccccc3s2)cc1)/c1nccs1", "PARAMETER": "CC50", "RESULT": "> 100 µM"}

We next turn to a different compound, shown below.
Record `C(=N\c1ccc(-c2nc3ccccc3s2)cc1)/c1ccccc1` . Reported CC50: > 100 µM

###

assay: in vitro; details: human
Attribute: CC50

{"COMPOUND": "C(=N\\c1ccc(-c2nc3ccccc3s2)cc1)/c1cccs1 [Compound 1q]", "PARAMETER": "CC50", "RESULT": "> 100 µM"}
{"COMPOUND": "COc1ccc(/C=N/c2ccc(-c3nc4ccccc4s3)cc2)cc1O [Compound 1l]", "PARAMETER": "CC50", "RESULT": "> 100 µM"}
{"COMPOUND": "C(=N\\c1ccc(-c2nc3ccccc3s2)cc1)/c1ccoc1 [Compound 1n]", "PARAMETER": "CC50", "RESULT": "> 100 µM"}

We next turn to a different compound, shown below.
Record Oc1cccc(/C=N/c2ccc(-c3nc4ccccc4s3)cc2)c1O [Compound 1k] . Reported CC50: > 100 µM
